What Population Tubulin-Different-Phenotype (%) was measured for each of the following?
Test system: Fibroblast
PROTOCOL NOTES: Multiplex assay against human fibroblast
Type: toxicity, cell-based
CONDITION LABEL: 12 h, 10 µM, compound concentration 10 uM, replicate 1
Give bare numbers, in %.

Here is how some molecules turned out for Population Tubulin-Different-Phenotype (%).
* Cc1ccc(C(=O)Nc2cccc(C(F)(F)F)c2)cc1Nc1nc(-c2cccnc2)nc2c1cnn2C | 88
* CN1CCN(C(=O)C(C)(C)c2ccc(C(=O)Nc3cn4cc(-c5cc(C(C)(C)C)cc(C(C)(C)C)c5)ccc4n3)cc2)CC1 | 21
* CCn1c(=O)c(-c2ccc(-c3cncs3)cc2Cl)cc2cnc(Nc3ccc(N4CCN(C)CC4)cc3)nc21 | 50
* COc1cc(N2CCN(C)CC2)ccc1Nc1ncc2c(n1)N(C)c1ccccc1C(=O)N2C | 82

Report Population Tubulin-Different-Phenotype (%) for every entry below.
1. Cn1nc(C(F)(F)F)cc1-c1cnc(N2CCc3cc(S(=O)(=O)Nc4c(F)cc(Cl)cc4F)cc(N4CCCC4=O)c32)nc1
2. COc1cccc2cc(-c3nc([C@H]4CC[C@H](C(=O)O)CC4)n4ncnc(N)c34)[nH]c12
3. O=C(Nc1ccc(Cl)cc1)Nc1cccc(-c2cccc(N3CCCC3)n2)c1
4. CN1CCC(=C2c3ccccc3CC(=O)c3sccc32)CC1.O=C(O)/C=C/C(=O)O [KETOTIFEN FUMARATE]
5. CNc1cc(Oc2cc(C(=O)Nc3cc(N4CCN(C)CC4)cc(C(F)(F)F)c3)ccc2C)ncn1
6. CCCS(=O)(=O)c1nc(NC2CC2)cc(-c2ccc3c(ccn3C3CC(C)(C)NC(C)(C)C3)c2)n1
7. NC(=O)c1cccc(-c2cc(Nc3ccc(OC(F)(F)F)cc3)ncn2)c1
8. COC(=N)c1nc2ccc3ncnc(Nc4ccc(OC)cc4F)c3c2s1

[3, 0, 54, 84, 65, 40, 6, 1]

Report Population Tubulin-Different-Phenotype (%) for every entry below.
1. COc1ccc(-c2ccc3c(N4CCOCC4)nc(N4C[C@@H](C)O[C@@H](C)C4)nc3n2)cc1CO
2. COc1cc2ncnc(Nc3ccc(F)c(Cl)c3)c2cc1NC(=O)/C=C/CN1CCCCC1 [DACOMITINIB ANHYDROUS]
3. CCOc1cc2ncc(C#N)c(Nc3ccc(OCc4ccccn4)c(Cl)c3)c2cc1NC(=O)/C=C/CN(C)C
4. O=C(Nc1ccc(-n2nc(-c3cccnc3)cc2C(F)(F)F)cn1)c1ccc(-c2ccccc2)c(F)c1

1. 7
2. 7
3. 13
4. 62

Return reported Population Tubulin-Different-Phenotype (%); argument: `O=C1N/C(=N/c2ccccc2F)S/C1=C\c1ccc(C(=O)O)cc1`
51

---

Tested on: HEK-293T
PROTOCOL NOTES: Multiplex assay against HEK293T
Type: toxicity, cell-based
CONDITION LABEL: human, 24 h, 1 µM, compound concentration 1 uM, replicate 1
Each record's class is read off its Total Cell Count using these ranges: low: < 300; intermediate: ≥ 300 and < 500; high: ≥ 500

* COC(=N)c1nc2ccc3ncnc(Nc4ccc(OC)cc4F)c3c2s1 | high
* COc1cc2ncnc(Nc3ccc(F)c(Cl)c3)c2cc1NC(=O)/C=C/CN1CCCCC1 [DACOMITINIB ANHYDROUS] | high
* CN1CCN(C(=O)C(C)(C)c2ccc(C(=O)Nc3cn4cc(-c5cc(C(C)(C)C)cc(C(C)(C)C)c5)ccc4n3)cc2)CC1 | high
* O=C1N/C(=N/c2ccccc2F)S/C1=C\c1ccc(C(=O)O)cc1 | low
* COc1cccc2cc(-c3nc([C@H]4CC[C@H](C(=O)O)CC4)n4ncnc(N)c34)[nH]c12 | intermediate

Determine which band this molecule sits in: `CCOc1cc(C(=O)N2CCC(N3CCN(C)CC3)CC2)ccc1Nc1ncc2c(n1)N(C1CCCC1)c1ccccc1C(=O)N2C`
intermediate

Determine which band this molecule sits in: `CCc1cccc(CC)c1NC(=O)c1nn(C)c2c1CCc1cnc(Nc3ccc(C(=O)NC4CCN(C)CC4)cc3OC(F)(F)F)nc1-2`
intermediate

Determine which band this molecule sits in: CN(C)C(=O)C(CCN1CCC(O)(c2ccc(Cl)cc2)CC1)(c1ccccc1)c1ccccc1.Cl [LOPERAMIDE HYDROCHLORIDE]
low

Determine which band this molecule sits in: `CCN1CCN(Cc2ccc(Nc3ncc(F)c(-c4cc(F)c5nc(C)n(C(C)C)c5c4)n3)nc2)CC1.CS(=O)(=O)O`
low
